- MEASURED TARGET: Aromatase (Homo sapiens)
- PROTOCOL TEXT: qHTS assay to identify aromatase inhibitors (AID 743083); further: nearly all actives have a fitted effect of over 55% in size
- MEASUREMENT CONDITIONS: MCF-7 aro ERE, testosterone-driven ERE luciferase, 24 h; series mostly up to 70.3 µM
Inconclusive results are not listed. The source made the active and inactive calls. The call rests on the fitted dose curve; in most records, active means well fitted inhibition curve with a large enough effect in the repeat runs; inconclusive means weak or mixed curves; inactive means no such curve, though single readings can be large or run the other way.
Outcomes: active, inactive

{"COMPOUND": "Nc1nc2c(ncn2COCCO)c(=O)[nH]1", "CAT": "inactive"}
{"COMPOUND": "CCN1C(=O)c2ccccc2C1Nc1ccc(OCCN2CCCCC2)cc1 (stereo unspecified)", "CAT": "inactive"}
{"COMPOUND": "CCN(CC)c1ccc2c(-c3ccc(S(=O)(=O)O)cc3S(=O)(=O)[O-])c3ccc(=[N+](CC)CC)cc-3oc2c1", "CAT": "active"}
{"COMPOUND": "CN1CCN2c3ccccc3Cc3ccccc3C2C1 (stereo unspecified)", "CAT": "inactive"}
{"COMPOUND": "CC(C)(c1cc(Br)c(OCC(Br)CBr)c(Br)c1)c1cc(Br)c(OCC(Br)CBr)c(Br)c1 (stereo unspecified)", "CAT": "inactive"}
{"COMPOUND": "CCCCCCCCCCCCOCCOCCOCCOCCOCCOCCOCCOCCOCCO", "CAT": "active"}
{"COMPOUND": "COC1=C(OC)C(=O)C(CCCCCCCCCCO)=C(C)C1=O", "CAT": "active"}
{"COMPOUND": "CC1(C)CCC[C@]2(C)[C@H]3CCO[C@]3(C)CC[C@@H]12", "CAT": "inactive"}
{"COMPOUND": "CCCCCC/C=C\\CCCCCCCC(=O)O", "CAT": "inactive"}
{"COMPOUND": "COCCOc1cc2cc(C(=O)NC3CCN(C(C)C)CC3)n(CC(=O)Nc3ccc(Cl)cn3)c2cn1", "CAT": "inactive"}
{"COMPOUND": "Cc1cc(C(C)(C)C)cc(C)c1CC1=NCCN1", "CAT": "inactive"}
